- System: Plasmodium berghei
- experiment: Screen against P. berghei liver stage (PbLuc), transformed with Luciferase, at 2uM
- Type: functional, HepG2
- assay setup: tested at 2 uM
About 2,700 (4%) of roughly 68,000 compounds showed an effect of 50% or more. What follows is part of a selection rich in strong results, with near analogues and random picks from the rest.
The entries below come with measured INHIBITION values attached.

compound | INHIBITION [%]
CSCCc1ccc(NC(=O)NC(C)Cn2cncn2)cc1 (centres undefined) | 60.34
Cc1nc(Cn2c(=O)cnc3ccccc32)n(C)n1 | -48.07
Cc1nnc(C(C)NCC2(c3ccc(F)cc3)CCCCC2)o1 (centres undefined) | -55.34
COc1c(CNCc2ccc(C(=O)N(C)C(C)C)cc2)c(C)nn1C | 4.55

Numbers sourced from ChEMBL document CHEMBL4513216.
